TARGET UNDER TEST: T1, CD3ε homodimer protein (human, UniProt P07766 23-126, limits assumed, sulfo-tag or biotin label in some ECL assays)
T1 construct: also called human CD3ε homodimer protein; CD3 (CD3ε)
T1 sequence (P07766 23-126 limits assumed): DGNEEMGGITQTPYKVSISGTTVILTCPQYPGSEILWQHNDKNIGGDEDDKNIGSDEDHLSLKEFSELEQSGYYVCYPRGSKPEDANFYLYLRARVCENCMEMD
EXPERIMENTAL DETAILS: SPR, CD3ε homodimer on chip;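 further: biacore SPR with antibody variants flowed as analyte over amine-coupled CD3ε homodimer on a CM chip, bound amount of each single-residue H chain variant over that of parent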
Catalogue of ratio of amounts bound vs CE115HA000 readings, one per entry.
REPORTED METRIC: ratio of amounts bound vs CE115HA000

• CE115HA000 K64E (antibody, name in Kabat numbering, V domains shown) VH: QVQLVESGGGVVQPGRSLRLSCAASGFTFSNAWMHWVRQAPGKGLEWVAQIKAKSNNYATYYAESVEGRFTISRDDSKNSLYLQMNSLKTEDTAVYYCRYVHYGAYYGVDAWGQGTTVTVSS VL: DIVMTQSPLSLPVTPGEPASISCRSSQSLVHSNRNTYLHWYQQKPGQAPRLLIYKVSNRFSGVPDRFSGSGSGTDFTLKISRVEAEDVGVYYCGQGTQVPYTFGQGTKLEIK = 0.74
• CE115HA000 G65E (antibody, name in Kabat numbering, V domains shown) VH: QVQLVESGGGVVQPGRSLRLSCAASGFTFSNAWMHWVRQAPGKGLEWVAQIKAKSNNYATYYAESVKERFTISRDDSKNSLYLQMNSLKTEDTAVYYCRYVHYGAYYGVDAWGQGTTVTVSS VL: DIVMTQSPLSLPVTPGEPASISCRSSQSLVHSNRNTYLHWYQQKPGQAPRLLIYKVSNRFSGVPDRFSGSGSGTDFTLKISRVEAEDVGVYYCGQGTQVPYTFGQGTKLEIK = 0.78
• CE115HA000 Q50I (antibody, name in Kabat numbering, V domains shown) VH: QVQLVESGGGVVQPGRSLRLSCAASGFTFSNAWMHWVRQAPGKGLEWVAIIKAKSNNYATYYAESVKGRFTISRDDSKNSLYLQMNSLKTEDTAVYYCRYVHYGAYYGVDAWGQGTTVTVSS VL: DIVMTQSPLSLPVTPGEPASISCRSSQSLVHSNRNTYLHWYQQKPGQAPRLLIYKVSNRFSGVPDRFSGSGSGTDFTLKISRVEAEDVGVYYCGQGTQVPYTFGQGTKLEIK = 0.4
• CE115HA000 T57A (antibody, name in Kabat numbering, V domains shown) VH: QVQLVESGGGVVQPGRSLRLSCAASGFTFSNAWMHWVRQAPGKGLEWVAQIKAKSNNYAAYYAESVKGRFTISRDDSKNSLYLQMNSLKTEDTAVYYCRYVHYGAYYGVDAWGQGTTVTVSS VL: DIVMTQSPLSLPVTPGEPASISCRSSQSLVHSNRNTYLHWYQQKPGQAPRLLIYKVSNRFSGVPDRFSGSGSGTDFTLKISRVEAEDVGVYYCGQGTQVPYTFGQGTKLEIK = 0.98
• CE115HA000 Y100aF (antibody, name in Kabat numbering, V domains shown) VH: QVQLVESGGGVVQPGRSLRLSCAASGFTFSNAWMHWVRQAPGKGLEWVAQIKAKSNNYATYYAESVKGRFTISRDDSKNSLYLQMNSLKTEDTAVYYCRYVHYGAYFGVDAWGQGTTVTVSS VL: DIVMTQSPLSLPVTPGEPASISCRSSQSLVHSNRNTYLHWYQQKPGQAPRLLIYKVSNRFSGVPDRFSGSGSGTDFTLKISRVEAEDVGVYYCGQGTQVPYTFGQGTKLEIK = 0.87
